Molecular target: N^α -AT (AAA1 N^α -acetyltransferase) (Saccharomyces cerevisiae, UniProt P07347+P12945)
Construct: isolates N^α -acetyltransferase by treating yeast cells with lyticase; endogenous in cells; host or cells: Saccharomyces cerevisiae cells (native enzyme)
Sequence (P12945 2-854): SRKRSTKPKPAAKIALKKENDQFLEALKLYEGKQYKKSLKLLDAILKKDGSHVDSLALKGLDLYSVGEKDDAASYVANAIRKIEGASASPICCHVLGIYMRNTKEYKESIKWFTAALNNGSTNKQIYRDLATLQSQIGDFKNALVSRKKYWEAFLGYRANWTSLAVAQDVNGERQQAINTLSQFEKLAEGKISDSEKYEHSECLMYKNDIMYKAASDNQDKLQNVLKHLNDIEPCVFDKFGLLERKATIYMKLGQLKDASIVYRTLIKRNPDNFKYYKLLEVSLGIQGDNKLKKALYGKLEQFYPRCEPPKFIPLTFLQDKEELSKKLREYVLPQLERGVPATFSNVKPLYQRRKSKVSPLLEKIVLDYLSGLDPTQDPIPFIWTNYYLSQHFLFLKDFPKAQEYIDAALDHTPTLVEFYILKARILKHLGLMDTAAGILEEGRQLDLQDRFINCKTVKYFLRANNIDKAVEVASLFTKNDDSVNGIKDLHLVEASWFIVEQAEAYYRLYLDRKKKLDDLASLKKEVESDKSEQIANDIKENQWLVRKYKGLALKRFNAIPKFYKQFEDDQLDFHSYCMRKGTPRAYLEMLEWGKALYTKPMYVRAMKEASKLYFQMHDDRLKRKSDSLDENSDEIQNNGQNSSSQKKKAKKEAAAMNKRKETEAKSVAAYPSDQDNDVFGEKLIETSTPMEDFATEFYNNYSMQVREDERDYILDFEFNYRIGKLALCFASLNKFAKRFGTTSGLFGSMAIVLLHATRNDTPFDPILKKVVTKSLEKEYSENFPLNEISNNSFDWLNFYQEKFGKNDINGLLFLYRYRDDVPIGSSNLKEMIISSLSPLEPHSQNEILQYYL
Sequence (P07347 1-238): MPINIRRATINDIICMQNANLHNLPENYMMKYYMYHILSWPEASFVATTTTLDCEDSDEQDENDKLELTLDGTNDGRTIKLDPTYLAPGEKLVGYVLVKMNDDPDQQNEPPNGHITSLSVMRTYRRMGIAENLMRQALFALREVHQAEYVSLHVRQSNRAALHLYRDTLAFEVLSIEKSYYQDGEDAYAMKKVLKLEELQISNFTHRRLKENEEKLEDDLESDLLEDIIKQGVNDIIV
Assay: N^α-acetylation of synthetic peptides by AAA1 N^α-acetyltransferase ([3H]acetyl coenzyme A incorporation)
Type: biochemical
Design: concentration or dose not given beside the values
Details: Table 2: relative activity for N^α-acetylation of synthetic peptide substrate; influence of the amino terminal residue
Ends that are not written are not given here.
RESULT_TYPE: Activity (%) (mean activity ± S.D.) N^α -AT

SUBSTANCE | QUANTITATIVE_RESULT
HIPETQKGVIFYESHGKLEYKDIP (HIPETQKGVIFYESHGKLEYKDIP; also: tritium label) | 19
LIPETQKGVIFYESHGKLEYKDIP (LIPETQKGVIFYESHGKLEYKDIP) | 0
SIPETQKGVIFYESHGKLEYKDIP (SIPETQKGVIFYESHGKLEYKDIP) [ALCOHOL DEHYDROGENASE I (1-24) (Yeast), synthetic peptide substrate, yeast alcohol dehydrogenase I residues 1-24, reference compound] | 102
CIPETQKGVIFYESHGKLEYKDIP (CIPETQKGVIFYESHGKLEYKDIP) | 0
PIPETQKGVIFYESHGKLEYKDIP (PIPETQKGVIFYESHGKLEYKDIP) | 70
